# Method Description: Systemic pharmacokinetics after oral (PO) and intraperitoneal (IP) administration
# Format: in vivo
# Experimental Conditions: male, CD-1, mouse, plasma, po, 30 mg/kg, Formulation 3 (G5), PO, male CD-1 mice, read-out: relative bioavailability
# Method: Systemic pharmacokinetics after oral (PO) and intraperitoneal (IP) administration. Male CD-1 mice were injected with BT2 in Formulation 1, Formulation 2 or Formulation 3 (Table 4) and blood was collected after 0.083, 0.25, 0.5, 1, 2, 4, 8 and 24 h. BT2 was given PO or IP injection. […] Plasma samples were analysed by LC-MS/MS (SCIEX ExionLC)-MS/MS (Triple Quad 6500+ With Analyst 1.7.1 AB Sciex). […]
Measured Parameter: bioavailability

// query Find the recorded bioavailability belonging to `CCOC(=O)Nc1ccc2c(c1)C(=O)N(CC)c1ccccc1O2` and report it.
// result 28.8%

* * *

# Method Description: Systemic pharmacokinetics after oral (PO) and intraperitoneal (IP) administration
# Format: in vivo
# Experimental Conditions: male, CD-1, mouse, plasma, po, 30 mg/kg, Formulation 3 (G5), male CD-1 mice
Measured Parameter: Tmax

// query // returns reported Tmax for input `CCOC(=O)Nc1ccc2c(c1)C(=O)N(CC)c1ccccc1O2`
// result 1 h

* * *

# Method Description: Systemic pharmacokinetics after oral (PO) and intraperitoneal (IP) administration
# Assay type: in vivo
# Experimental Conditions: male, CD-1, mouse, plasma, ip, 30 mg/kg, Formulation 1 (G2), male CD-1 mice
Measured Parameter: Tmax (min)
Just the number please, in min, no unit attached.

// query For the compound CCOC(=O)Nc1ccc2c(c1)C(=O)N(CC)c1ccccc1O2 [BT2] , what Tmax is on record?
// result 15
